Origin of the recorded values: patent US20050124658A1

recorded endpoint: melting point

[[record]]
compound = "O=C1OCC2C3OC(C4CCCCC43)C12 (stereo not shown)"
result = "90 to 91 °C"

[[record]]
compound = "O=C1OCC2C1CC1CCCCC1C2O (stereo not shown)"
result = "149 to 150 °C"

[[record]]
compound = "C=C1C2CCCCC2CC2C(OC)OCC12 (stereo not shown)"
result = "53 to 55 °C"

[[record]]
compound = "COC1OCC2C(O)C3CCCCC3CC12 (stereo not shown)"
result = "75 to 77 °C"

[[record]]
compound = "COC1OCC2C(=O)C3CCCCC3CC12 (stereo not shown)"
result = "78 to 79 °C"

[[record]]
compound = "O=C1OCC2C3OC(C4=C3CCCC4)C12 (stereo not shown)"
result = "105 to 106 °C"

[[record]]
compound = "COC1OCC2C1CC1CCCCC1C2COC(=O)c1ccc(Br)cc1 (stereo not shown)"
result = "107 to 108 °C"

